Experiment: Evaluated for inhibitory activity against Opioid receptor kappa 1 of rabbit vas deferens (RVD)
Square brackets hold non-standard residues; d marks the D form. Peptide text beside a SMILES is read from it. Sar = CNCC(=O)O
Decide using IC50 alone. Strictly below 20 nM: Met. Equal to or above 20 nM: Not met.

| compound | qualitative label |
| --- | --- |
| CC(C)C[C@H](NC(=O)[C@H](CCCNC(=N)N)NC(=O)[C@H](CCCNC(=N)N)NC(=O)[C@H](CC(C)C)NC(=O)[C@H](Cc1ccccc1)NC(=O)CNC(=O)CN(C)C(=O)[C@@H](N)Cc1ccc(O)cc1)C(N)=O (H-Y[Sar]GFLRRL-NH2) | Not met |
| CCNC(=O)[C@@H](CC(C)C)NC(=O)[C@H](CCCNC(=N)N)N(C)C(=O)[C@H](CCCNC(=N)N)NC(=O)[C@H](CC(C)C)NC(=O)[C@H](Cc1ccccc1)NC(=O)CNC(=O)CNC(=O)[C@H](Cc1ccc(O)cc1)NC | Met |
| CC[C@H](C)[C@H](NC(=O)[C@H](CCCNC(=N)N)NC(=O)[C@H](CCCNC(=N)N)NC(=O)[C@H](CC(C)C)NC(=O)[C@H](Cc1ccccc1)NC(=O)CNC(=O)CNC(=O)[C@@H](N)Cc1ccc(O)cc1)C(N)=O | Met |
| CN[C@@H](Cc1ccc(O)cc1)C(=O)NCC(=O)NCC(=O)N[C@@H](Cc1ccccc1)C(=O)N[C@@H](CC(C)C)C(=O)N(C)[C@@H](CCCN=C(N)N)C(=O)N[C@@H](CCCN=C(N)N)C(=O)N[C@H](CC(C)C)C(N)=O | Met |
| CN[C@@H](Cc1ccc(O)cc1)C(=O)NCC(=O)NCC(=O)N[C@@H](Cc1ccccc1)C(=O)N(C)[C@@H](CC(C)C)C(=O)N[C@@H](CCCNC(=N)N)C(=O)N[C@@H](CCCNC(=N)N)C(=O)N[C@H](CC(C)C)C(N)=O | Not met |
| CN[C@@H](Cc1ccc(O)cc1)C(=O)NCC(=O)NCC(=O)N[C@@H](Cc1ccccc1)C(=O)N[C@H](C)C(=O)N[C@@H](CCCNC(=N)N)C(=O)N[C@@H](CCCNC(=N)N)C(=O)N[C@H](CC(C)C)C(N)=O | Not met |
| CN[C@@H](Cc1ccc(O)cc1)C(=O)NCC(=O)NNC(=O)N[C@@H](Cc1ccccc1)C(=O)N[C@@H](CC(C)C)C(=O)N[C@@H](CCCNC(=N)N)C(=O)N[C@@H](CCCNC(=N)N)C(=O)N[C@H](CC(C)C)C(N)=O | Not met |

###

As shown below, each of these compounds has a reported pKi value.
Test: Binding affinities against Opioid receptor kappa 1 of guinea pig brain membrane using [3H]U69,593 as the radioligand using competition binding assays.
pKi: −log10 of the molar value. Square brackets hold non-standard residues; d marks the D form. Peptide text beside a SMILES is read from it. Phe(4-NO2) = N[CH](Cc1ccc([N+](=O)[O-])cc1)C(=O)O; NMeY = CN[CH](Cc1ccc(O)cc1)C(=O)O

| compound | pKi |
| --- | --- |
| CN[C@@H](Cc1ccc(O)cc1)C(=O)NCC(=O)NCC(=O)N[C@@H](Cc1ccccc1)C(=O)N[C@@H](CC(C)C)C(=O)N[C@@H](CCCNC(=N)N)C(=O)N(C)[C@@H](CCCNC(=N)N)C(=O)N[C@H](CC(C)C)C(N)=O | 8.85 |
| CCNC(=O)[C@@H](CC(C)C)NC(=O)[C@H](CCCNC(=N)N)N(C)C(=O)[C@H](CCCNC(=N)N)NC(=O)[C@H](CC(C)C)NC(=O)[C@H](Cc1ccccc1)NC(=O)CNC(=O)CNC(=O)[C@H](Cc1ccc(O)cc1)NC | 8.72 |
| CCNC(=O)[C@@H](CC(C)C)NC(=O)[C@H](CCCN=C(N)N)N(C)C(=O)[C@H](CCCN=C(N)N)NC(=O)[C@@H]1CSSC[C@@H](NC(=O)[C@@H](N)Cc2ccc(O)cc2)C(=O)NCC(=O)N[C@@H](Cc2ccccc2)C(=O)N1 | 8.52 |
| CC[C@H](C)[C@H](NC(=O)[C@H](CCCNC(=N)N)NC(=O)[C@H](CCCNC(=N)N)NC(=O)[C@H](CC(C)C)NC(=O)[C@H](Cc1ccccc1)NC(=O)CNC(=O)CNC(=O)[C@@H](N)Cc1ccc(O)cc1)C(N)=O | 8.92 |
| CCNC(=O)[C@@H](CC(C)C)NC(=O)[C@H](CCCN=C(N)N)N(C)C(=O)[C@H](CCCN=C(N)N)NC(=O)[C@H](CC(C)C)NC(=O)[C@H](Cc1ccc([N+](=O)[O-])cc1)NC(=O)CNC(=O)CNC(=O)[C@H](Cc1ccc(O)cc1)NC | 8.41 |
| CNC(Cc1ccc(O)cc1)C(=O)NCC(=O)NCC(=O)NC(Cc1ccc([N+](=O)[O-])cc1)C(=O)NC(CC(C)C)C(=O)NC(CCCNC(=N)N)C(=O)NC(CCCNC(=N)N)C(=O)NC(CC(C)C)C(N)=O (stereo unspecified) (H-[NMeY]GG[Phe(4-NO2)]LRRL-NH2; configuration not given here) | 9.11 |

Reference source: BindingDB's records for doi:10.1021/jm00163a034
